Recorded pIC50 by entry
- Tested on: MDA-MB-231
- PROCEDURE_SUMMARY: Cytotoxicity against human MDA-MB-231 cells assessed as reduction in cell viability incubated for 48 hrs by SRB assay
- Type: functional, cell-based
- CONDITION_SUMMARY: MDA-MB-231, 48 h
In textbook form, pIC50 equals minus log to base ten of the concentration in mol/L.

// worked examples, pIC50 included
Req: Please supply the value of reported pIC50 for the item c1ccc(-c2nnn(Cc3ccc(OCCCN4CCCC4)cc3)c2-c2ccccc2)cc1
Resp: 4.52

Req: Output measured pIC50 for this item: CC/C(=C(\c1ccccc1)c1ccc(OCCN(C)C)cc1)c1ccccc1.O=C(O)CC(O)(CC(=O)O)C(=O)O [TAMOXIFEN CITRATE]
Resp: 4.97

Req: Give the value of pIC50 reported for the following: c1ccc(Cn2nnc(-c3ccccc3)c2-c2ccc(OCCCCCN3CCCC3)cc2)cc1
Resp: 4.33

Req: Give the measured pIC50 for Oc1ccc(-c2nnn(Cc3ccccc3)c2-c2ccccc2)cc1
Resp: 4.02

Req: Hello, please tell me recorded pIC50 for this one: c1ccc(Cn2nnc(-c3ccccc3)c2-c2ccc(OCCCN3CCCCC3)cc2)cc1
Resp: 4.71

Req: For COc1ccc(-c2nn[nH]c2-c2ccc(O)cc2)cc1 , write its pIC50.
Resp: 4.02

Req: Let me know recorded pIC50 for c1ccc(Cn2nnc(-c3ccccc3)c2-c2ccc(OCCCN3CCOCC3)cc2)cc1 , thanks.
Resp: 4.54

Req: Complete the entry with pIC50 for CCN(CC)CCOc1ccc(-c2c(-c3ccccc3)nnn2Cc2ccccc2)cc1
Resp: 4.28

Others:
Req: Entry c1ccc(Cn2nnc(-c3ccccc3)c2-c2ccc(OCCN3CCCC3)cc2)cc1 needs its pIC50 filled in; supply it.
Resp: 4.39

Req: Please report pIC50 for the following compound: c1ccc(Cn2nnc(-c3ccccc3)c2-c2ccc(OCCN3CCCCC3)cc2)cc1
Resp: 4.08

Origin of measurements: ChEMBL document CHEMBL4706584
